B1: CPEB3 Ribozyme (parent)
chain: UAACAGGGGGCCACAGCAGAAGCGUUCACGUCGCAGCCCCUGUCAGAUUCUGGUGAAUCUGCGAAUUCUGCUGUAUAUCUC

# Variants of: B1
# procedure summary: self-cleavage, relative activity (ratio to wild type); higher = more cleavage; in vitro, sequencing
observed property: self-cleavage
Reply: number alone, nothing else.

Please give the measured self-cleavage for this variant: G42A A57U
0.18

Please give the measured self-cleavage for this variant: A15G C81A
1.16

Please give the measured self-cleavage for this variant: A15G U76C
0.89

Please give the measured self-cleavage for this variant: G73U U76C
1.21

Please give the measured self-cleavage for this variant: G16C G24C
0.2

Please give the measured self-cleavage for this variant: G16U G24A
0.19

Please give the measured self-cleavage for this variant: C32A G46A
0.11

Please give the measured self-cleavage for this variant: G53A C59U
1.07

Please give the measured self-cleavage for this variant: A13C
0.96

Please give the measured self-cleavage for this variant: U41C U66C
0.49

Please give the measured self-cleavage for this variant: C32A C40A
0.11

Please give the measured self-cleavage for this variant: G63A A65G
0.38

Please give the measured self-cleavage for this variant: G24U U72A
0.11
